Study System: CDK2/Cyclin-Y (Homo sapiens, UniProt P24941+Q8ND76)
Assay Info: Inhibition of recombinant NanoLuc-tagged CDK2/cyclin Y expressed in human HCT116 cells at 1 uM incubated for 20 to 24 hrs by NanoBRET assay
Assay type: cell-based
Property: pIC50
Please keep in mind that pIC50 is minus log10 of the molar concentration; only the number is needed.

Query string: What is its pIC50 for CDK2/Cyclin-Y (Homo sapiens, UniProt P24941+Q8ND76)? Entry: CN(C)C/C=C/C(=O)Nc1cccc(S(=O)(=O)N2CCC(NC(=O)c3n[nH]cc3NC(=O)c3c(Cl)cc(Cl)cc3Cl)CC2)c1
Result string: 6.59
